Parameter: log10(fluorescence lifetime). Scope: all listed entries.
Assay: solvent given as SMILES
Conditions: in ClCCl
value type: log10(fluorescence lifetime) (log10 of the value in ns)

N#Cc1ccc(N(c2ccccc2)c2ccc3ccc4c(N(c5ccccc5)c5ccc(C#N)cc5)ccc5ccc2c3c54)cc1
0.43
c1ccc(C2=C3c4ccccc4C4=[N+]3[B-]3(Oc5ccccc54)Oc4ccccc4-c4c5ccccc5c2n43)cc1 (centres undefined)
0.85
COc1cc(-c2cc(-c3ccc(C)cc3)nc3c(C#N)c(N4CCCC4)nc(N)c23)cc(OC)c1OC
1.10
Fc1ccc(-c2ccc(-c3cc(-c4ccccn4)nc(-c4ccccn4)c3)cc2)c(F)c1
0.25
CN(C)c1ccc(/C=C2\CC/C(=C\c3ccc(N(C)C)cc3)C2=O)cc1
-0.11
CCn1c2ccccc2c2c3nsnc3c3c4ccccc4n(CC)c3c21
0.00
C[Si]1(C)c2cc(-c3ccccc3)ccc2C=Cc2ccc(-c3ccccc3)cc21
0.20
CN(C)c1ccc(/C=C/c2cc[n+](Cc3cc(C[n+]4ccc(/C=C/c5ccc(N(C)C)cc5)cc4)cc(C[n+]4ccc(/C=C/c5ccc(N(C)C)cc5)cc4)c3)cc2)cc1
-0.49
F[B-]1(F)n2c(-c3cccs3)cc(-c3cccs3)c2N=C2C(c3cccs3)=CC(c3cccs3)=[N+]21
0.37
